Let's look at some compounds and their measured Processed sample stability (% ± SD).
TEST: Stability of analytes in rat plasma
EXPERIMENTAL_CONTEXT: processed rat plasma sample, 4 h, high QC (nominal 200.50-201.50 ng/mL), n = 6

- COMPOUND: "CC1=C(C)C(=O)O[C@@H]([C@@H](C)[C@H]2CC[C@H]3[C@@H]4[C@@H]5O[C@@H]5[C@@]5(O)CC=CC(=O)[C@]5(C)[C@H]4CC[C@]23C)C1 [Withanolide B]"
  UNIT_OF_MEASUREMENT: "%"
  Processed sample stability (% ± SD): 95.01
- COMPOUND: "CC1=C(C)C(=O)O[C@@H]([C@](C)(O)[C@H]2CC[C@H]3[C@@H]4[C@@H]5O[C@@H]5[C@@]5(O)CC=CC(=O)[C@]5(C)[C@H]4CC[C@]23C)C1 [Withanolide A]"
  UNIT_OF_MEASUREMENT: "%"
  Processed sample stability (% ± SD): 99.36
- COMPOUND: "CC1=C(C)C(=O)O[C@@H]([C@@H](C)[C@@]2(O)CC[C@H]3[C@@H]4[C@@H]5O[C@@H]5[C@@]5(O)CC=CC(=O)[C@]5(C)[C@H]4CC[C@@]32C)C1"
  UNIT_OF_MEASUREMENT: "%"
  Processed sample stability (% ± SD): 99.56

----------
TEST: In vivo pharmacokinetic study after oral WSE
EXPERIMENTAL_CONTEXT: male, Sprague Dawley, rat, plasma, po, 500 mg/kg

- STRUCTURE_AS_SMILES: "CC1=C(CO)C(=O)O[C@@H]([C@@H](C)[C@H]2CC[C@H]3[C@@H]4C[C@H]5O[C@]56[C@@H](O)C=CC(=O)[C@]6(C)[C@H]4CC[C@]23C)C1"
  UNIT_OF_MEASUREMENT: "ng·h/mL"
  AUC(0-t): 161
